Values compiled from paper PMC4336329.

tgt: human ether-à-go-go-related gene (hERG) potassium channel (human, UniProt Q12809)
Sequence (Q12809 whole entry, looked up): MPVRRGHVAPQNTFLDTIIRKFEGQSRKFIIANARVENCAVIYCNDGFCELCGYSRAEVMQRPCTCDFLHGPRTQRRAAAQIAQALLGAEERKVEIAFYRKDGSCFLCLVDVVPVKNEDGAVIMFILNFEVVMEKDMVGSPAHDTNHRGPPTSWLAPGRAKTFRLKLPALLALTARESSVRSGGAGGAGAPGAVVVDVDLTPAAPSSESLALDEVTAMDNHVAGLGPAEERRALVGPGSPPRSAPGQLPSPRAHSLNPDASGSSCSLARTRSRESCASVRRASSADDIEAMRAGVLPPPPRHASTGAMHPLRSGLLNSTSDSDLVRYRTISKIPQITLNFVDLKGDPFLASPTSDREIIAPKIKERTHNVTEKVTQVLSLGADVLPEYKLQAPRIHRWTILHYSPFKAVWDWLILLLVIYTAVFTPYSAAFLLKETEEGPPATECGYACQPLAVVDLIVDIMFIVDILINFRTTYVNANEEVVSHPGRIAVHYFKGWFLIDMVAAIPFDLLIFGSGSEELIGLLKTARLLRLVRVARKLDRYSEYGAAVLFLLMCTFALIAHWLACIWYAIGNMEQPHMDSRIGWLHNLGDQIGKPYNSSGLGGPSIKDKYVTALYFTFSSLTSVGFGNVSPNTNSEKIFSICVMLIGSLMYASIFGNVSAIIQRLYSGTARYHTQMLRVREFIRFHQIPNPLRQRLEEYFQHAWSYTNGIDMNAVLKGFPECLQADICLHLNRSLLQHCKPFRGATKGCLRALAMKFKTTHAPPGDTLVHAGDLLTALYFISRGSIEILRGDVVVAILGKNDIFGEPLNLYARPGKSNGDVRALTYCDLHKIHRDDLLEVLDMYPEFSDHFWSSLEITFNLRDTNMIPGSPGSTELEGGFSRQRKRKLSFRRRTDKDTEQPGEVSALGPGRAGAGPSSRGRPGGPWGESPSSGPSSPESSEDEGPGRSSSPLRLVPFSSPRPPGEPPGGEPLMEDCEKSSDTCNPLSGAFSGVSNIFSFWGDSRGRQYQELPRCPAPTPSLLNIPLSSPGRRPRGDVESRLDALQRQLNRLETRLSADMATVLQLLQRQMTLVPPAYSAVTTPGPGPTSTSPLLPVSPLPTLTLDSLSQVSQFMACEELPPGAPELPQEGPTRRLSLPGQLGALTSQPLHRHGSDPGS
run description: primary screen, population patch clamp on CHO cells stably expressing hERG; higher = less effect of the substance;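 note: peak tail current of the secondary pulse compared with the same well before compound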
Hit rate of the full screen: of about 310,000 compounds, about 14,000 (4.5%) showed an effect of 50% or more. The effect is printed as a negative number. Shown is part of a subset that was picked to be rich in strong results.
Task for the reader: assign each of the following compounds its reported hERG current change (%, negative = inhibition) at 10uM.
// return numeric value only (unit: %, not printed)

# get_value(readout='hERG current change (%, negative = inhibition) at 10uM', item= Cc1nc2ccc(NC(=O)N3CCC(c4ccccc4)C3)cc2nc1C (stereo not shown) )
-11.4

How about CC12CCC(C(=O)N3CCN(c4ncccn4)CC3)(c3nc4ccccc4nc31)C2(C)C (stereo not shown) ?
-20.2

How about `Cc1nc2cc(NC(=O)N3CCCC3)ccc2n1C` ?
-1.21

How about CN1CCN(C(=O)C23CCC(C)(c4nc5ccccc5nc42)C3(C)C)CC1 (stereo not shown) ?
-53.3

How about `COc1ccc(NC(=O)CN2CCC(n3c(C)nc4cc(F)ccc43)CC2)c(OC)c1` ?
-4.64

How about `Cl.O=C(CN1CCC(n2nnc3cc(F)ccc32)CC1)NCc1ccco1` ?
-35.6

How about `COc1ccc(Cl)cc1NC(=O)CN1CCC(n2nnc3cc(F)ccc32)CC1` ?
-7.93

How about `COc1ccc(CNC(=O)CN2CCN(c3cccc(C)c3C)CC2)cc1` ?
-8.46

How about `COc1ccc(Cl)cc1NC(=O)CN1CCC(n2nnc3ccccc32)CC1` ?
-10.4

How about `O=C(Nc1cc2c3c(c1)CC(=O)N3CCC2)c1ccccc1F` ?
0.297
